compounds and their reported viscosity
- Measurement notes: mn = molality of the nth substance listed, in mol/kg
- Measurement context: 303.15 K; 101 kPa; Liquid; Capillary tube (Ostwald / Ubbelohde) method; m2 = 0
Measured endpoint: viscosity (mPa·s)

> print(dat)
                             compound  measured.endpoint   unit  number
1  CCCCO [butan-1-ol] + Cc1ccc(N)cc1N          viscosity  mPa·s   2.225
2  CCCO [propan-1-ol] + Cc1ccc(N)cc1N          viscosity  mPa·s   1.696
3       CCO [ethanol] + Cc1c(N)cccc1N          viscosity  mPa·s   0.972
4  CCCCO [butan-1-ol] + Cc1c(N)cccc1N          viscosity  mPa·s   2.225
5       CCO [ethanol] + Cc1ccc(N)cc1N          viscosity  mPa·s   0.972
6           O [water] + Cc1c(N)cccc1N          viscosity  mPa·s   0.798
7  CCCO [propan-1-ol] + Cc1c(N)cccc1N          viscosity  mPa·s   1.696
